This collection of values is drawn from BindingDB's records for patent US20240002393.

- system_tested: Gamma-aminobutyric acid receptor subunit alpha-1/beta-3/gamma-2 (Homo sapiens, UniProt P14867+P18507+P28472)
- Sequence (P14867 whole entry): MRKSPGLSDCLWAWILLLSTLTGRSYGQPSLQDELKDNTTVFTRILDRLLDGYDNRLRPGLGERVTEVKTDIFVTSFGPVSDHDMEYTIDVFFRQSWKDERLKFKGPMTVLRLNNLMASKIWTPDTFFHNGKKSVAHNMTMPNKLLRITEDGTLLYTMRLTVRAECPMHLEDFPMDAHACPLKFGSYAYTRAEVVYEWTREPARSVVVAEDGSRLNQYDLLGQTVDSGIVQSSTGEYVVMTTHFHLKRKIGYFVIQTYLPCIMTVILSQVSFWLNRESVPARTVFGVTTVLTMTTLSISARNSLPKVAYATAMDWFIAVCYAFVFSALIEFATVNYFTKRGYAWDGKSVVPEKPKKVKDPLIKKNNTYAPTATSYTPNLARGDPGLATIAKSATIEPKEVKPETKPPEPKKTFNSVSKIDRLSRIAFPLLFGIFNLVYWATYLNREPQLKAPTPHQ
- Sequence (P18507 as listed by the source): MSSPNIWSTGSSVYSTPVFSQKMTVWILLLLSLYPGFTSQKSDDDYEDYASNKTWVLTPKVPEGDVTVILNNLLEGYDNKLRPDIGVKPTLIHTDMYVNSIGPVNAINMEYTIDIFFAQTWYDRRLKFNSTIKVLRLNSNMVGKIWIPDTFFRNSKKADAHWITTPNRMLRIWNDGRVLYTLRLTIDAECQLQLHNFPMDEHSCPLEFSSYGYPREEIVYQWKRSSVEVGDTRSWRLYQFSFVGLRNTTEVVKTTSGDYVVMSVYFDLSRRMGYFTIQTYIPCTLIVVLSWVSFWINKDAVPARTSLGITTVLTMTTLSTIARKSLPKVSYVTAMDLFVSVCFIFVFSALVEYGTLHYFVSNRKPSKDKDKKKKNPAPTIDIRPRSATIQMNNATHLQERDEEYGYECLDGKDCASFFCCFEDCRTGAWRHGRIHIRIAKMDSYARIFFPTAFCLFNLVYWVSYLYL
- Sequence (P28472 whole entry): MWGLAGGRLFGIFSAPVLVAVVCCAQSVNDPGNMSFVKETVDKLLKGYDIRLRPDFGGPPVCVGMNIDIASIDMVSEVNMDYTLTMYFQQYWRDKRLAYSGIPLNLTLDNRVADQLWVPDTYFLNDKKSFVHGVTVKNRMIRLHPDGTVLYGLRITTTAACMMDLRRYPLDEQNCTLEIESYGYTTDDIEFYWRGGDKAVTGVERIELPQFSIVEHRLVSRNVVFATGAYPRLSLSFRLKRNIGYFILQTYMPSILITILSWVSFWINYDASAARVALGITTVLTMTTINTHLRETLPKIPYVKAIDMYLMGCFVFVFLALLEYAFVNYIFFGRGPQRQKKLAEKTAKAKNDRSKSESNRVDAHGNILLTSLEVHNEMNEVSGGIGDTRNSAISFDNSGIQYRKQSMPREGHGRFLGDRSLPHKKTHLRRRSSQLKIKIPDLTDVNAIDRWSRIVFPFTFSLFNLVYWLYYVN
outcome_measure: Ki (nM)
Please give a number only; it is taken to be in nM.

# Ki of CCc1nnc2n1-c1ccc(C(F)(F)F)c(Cl)c1C(c1c(F)cccc1F)=N[C@H]2C = 2370

###

- system_tested: Gamma-aminobutyric acid receptor subunit alpha-2/beta-2/gamma-1 (Human, UniProt P47869+P47870+Q8N1C3)
- Sequence (Q8N1C3 whole entry): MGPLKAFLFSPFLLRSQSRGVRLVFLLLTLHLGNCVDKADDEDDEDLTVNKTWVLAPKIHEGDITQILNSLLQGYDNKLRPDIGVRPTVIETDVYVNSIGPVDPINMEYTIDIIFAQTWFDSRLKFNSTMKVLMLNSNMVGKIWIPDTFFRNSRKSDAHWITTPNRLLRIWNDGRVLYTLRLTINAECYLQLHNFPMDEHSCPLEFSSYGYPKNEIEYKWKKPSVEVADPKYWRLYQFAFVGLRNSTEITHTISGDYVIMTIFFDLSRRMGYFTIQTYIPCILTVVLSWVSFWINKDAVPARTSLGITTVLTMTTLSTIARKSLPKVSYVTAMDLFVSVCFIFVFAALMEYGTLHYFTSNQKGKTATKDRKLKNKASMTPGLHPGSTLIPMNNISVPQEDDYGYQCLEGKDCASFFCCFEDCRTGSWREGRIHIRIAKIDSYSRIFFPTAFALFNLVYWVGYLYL
- Sequence (P47869 whole entry): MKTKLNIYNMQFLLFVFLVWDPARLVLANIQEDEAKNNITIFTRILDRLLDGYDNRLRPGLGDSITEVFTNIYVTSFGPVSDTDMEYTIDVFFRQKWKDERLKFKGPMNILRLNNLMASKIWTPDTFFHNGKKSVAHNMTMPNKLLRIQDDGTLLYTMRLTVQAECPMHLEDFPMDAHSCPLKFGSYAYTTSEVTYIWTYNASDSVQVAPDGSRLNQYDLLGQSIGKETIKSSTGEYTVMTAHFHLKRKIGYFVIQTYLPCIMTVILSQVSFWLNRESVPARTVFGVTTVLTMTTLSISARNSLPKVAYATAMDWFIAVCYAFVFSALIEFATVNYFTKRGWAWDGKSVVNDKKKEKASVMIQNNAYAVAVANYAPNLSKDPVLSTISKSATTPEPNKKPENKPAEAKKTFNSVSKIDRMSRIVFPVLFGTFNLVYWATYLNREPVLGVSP
- Sequence (P47870 whole entry): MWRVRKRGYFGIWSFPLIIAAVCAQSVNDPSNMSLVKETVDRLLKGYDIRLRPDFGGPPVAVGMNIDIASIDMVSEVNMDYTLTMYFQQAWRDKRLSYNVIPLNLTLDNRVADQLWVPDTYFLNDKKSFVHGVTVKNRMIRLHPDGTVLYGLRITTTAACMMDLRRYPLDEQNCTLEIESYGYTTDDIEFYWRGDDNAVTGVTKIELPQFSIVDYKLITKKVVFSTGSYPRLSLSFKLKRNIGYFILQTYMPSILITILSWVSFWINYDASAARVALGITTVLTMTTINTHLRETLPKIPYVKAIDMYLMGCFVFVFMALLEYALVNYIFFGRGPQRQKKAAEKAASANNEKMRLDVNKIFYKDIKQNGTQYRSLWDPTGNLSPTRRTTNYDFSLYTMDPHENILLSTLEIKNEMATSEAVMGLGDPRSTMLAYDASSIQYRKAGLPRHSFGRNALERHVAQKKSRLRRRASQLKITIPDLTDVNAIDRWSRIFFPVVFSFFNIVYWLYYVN
- protocol: Electrophysiology Assay
outcome_measure: Ki (nM)
Please give a number only; it is taken to be in nM.

# Ki of CCc1nnc2n1-c1ccc(C(F)(F)F)c(Cl)c1C(c1c(F)cccc1F)=N[C@H]2C = 47
